# method_summary: RP TLC on non-impregnated control plates
# Format: physicochemical
# conditions_used: Table S4, non-impregnated RP plate; acetonitrile/acetate buffer pH 7.4/methanol 60:20:20
# CRP (Rf, control RP plate) >= 0.8 gives label 1, anything below gives label 0

[
  {
    "compound": "COc1cc(N)c(Cl)cc1C(=O)NC1CCN(CCCOc2ccc(F)cc2)CC1OC (centres unmarked) [cisapride]",
    "assigned_class": "label 0"
  },
  {
    "compound": "O=C1CN=C(c2ccccn2)c2cc(Br)ccc2N1",
    "assigned_class": "label 1"
  },
  {
    "compound": "Nc1nnc(-c2cccc(Cl)c2Cl)c(N)n1",
    "assigned_class": "label 1"
  },
  {
    "compound": "COc1cc2nc(N3CCN(C(=O)C4COc5ccccc5O4)CC3)nc(N)c2cc1OC (centres unmarked)",
    "assigned_class": "label 0"
  },
  {
    "compound": "CCCCc1oc2ccccc2c1C(=O)c1cc(I)c(OCCN(CC)CC)c(I)c1",
    "assigned_class": "label 0"
  },
  {
    "compound": "CCC(C)(C)C(=O)O[C@H]1C[C@@H](C)C=C2C=C[C@H](C)[C@H](CC[C@@H]3C[C@@H](O)CC(=O)O3)[C@H]21",
    "assigned_class": "label 0"
  },
  {
    "compound": "O=C(N[C@H](CO)[C@H](O)c1ccc([N+](=O)[O-])cc1)C(Cl)Cl",
    "assigned_class": "label 1"
  },
  {
    "compound": "Cc1ccc(-c2cc(C(F)(F)F)nn2-c2ccc(S(N)(=O)=O)cc2)cc1",
    "assigned_class": "label 0"
  }
]

====

# method_summary: HPLC on immobilized artificial membrane column (HPLCIAM)
# Format: physicochemical
# conditions_used: Table S5, retention factor, IAM column, phosphate buffer pH 7.4/acetonitrile 80:20
# k IAM per record follows

[
  {
    "molecule": "CN/C(=N/CCSCc1nc[nH]c1C)NC#N",
    "k IAM": 0.26
  },
  {
    "molecule": "CCOC(=O)[C@H](CCc1ccccc1)N[C@@H](C)C(=O)N1Cc2ccccc2C[C@H]1C(=O)O",
    "k IAM": 1.22
  },
  {
    "molecule": "COc1ccc(C(CN(C)C)C2(O)CCCCC2)cc1 (stereo not shown)",
    "k IAM": 8.25
  },
  {
    "molecule": "CCN1CCCC1CNC(=O)c1cc(S(N)(=O)=O)ccc1OC (stereo not shown) [sulpiride]",
    "k IAM": 1.66
  },
  {
    "molecule": "COc1ccc2c(c1)c(CC(=O)O)c(C)n2C(=O)c1ccc(Cl)cc1",
    "k IAM": 1.08
  },
  {
    "molecule": "O=C(O)COC(=O)Cc1ccccc1Nc1c(Cl)cccc1Cl",
    "k IAM": 2.63
  },
  {
    "molecule": "O=C1CC2(CCCC2)CC(=O)N1CCCCN1CCN(c2ncccn2)CC1",
    "k IAM": 7.00
  },
  {
    "molecule": "OCCN1CCN(CC/C=C2/c3ccccc3Sc3ccc(Cl)cc32)CC1",
    "k IAM": 48.73
  },
  {
    "molecule": "CN1CCN(C(=O)OC2c3nccnc3C(=O)N2c2ccc(Cl)cn2)CC1 (stereo not shown)",
    "k IAM": 0.91
  },
  {
    "molecule": "CC(=O)S[C@@H]1CC2=CC(=O)CC[C@]2(C)[C@H]2CC[C@@]3(C)[C@@H](CC[C@@]34CCC(=O)O4)[C@H]12",
    "k IAM": 13.38
  },
  {
    "molecule": "O=C1CN=C(c2ccccn2)c2cc(Br)ccc2N1",
    "k IAM": 2.21
  },
  {
    "molecule": "Clc1cccc(Cl)c1N=C1NCCN1",
    "k IAM": 2.83
  },
  {
    "molecule": "Cc1cncc(CN2CCC(=C3c4ccc(Cl)cc4CCc4cccnc43)CC2)c1",
    "k IAM": 9.29
  },
  {
    "molecule": "CN1CCN(C2=Nc3cc(Cl)ccc3Nc3ccccc32)CC1",
    "k IAM": 50.94
  },
  {
    "molecule": "C[C@]12CC[C@@H]3c4ccc(OC(=O)c5ccccc5)cc4CC[C@H]3[C@@H]1CC[C@@H]2O [estradiol benzoate]",
    "k IAM": 6.92
  },
  {
    "molecule": "CCN(Cc1ccncc1)C(=O)C(CO)c1ccccc1 (stereo not shown)",
    "k IAM": 1.06
  },
  {
    "molecule": "CN1CCN2c3ccccc3Cc3ccccc3C2C1 (stereo not shown)",
    "k IAM": 21.72
  },
  {
    "molecule": "O=C1NC(=O)C(c2ccccc2)(c2ccccc2)N1",
    "k IAM": 1.78
  },
  {
    "molecule": "COc1cc(N)c(Cl)cc1C(=O)NC1CCN(CCCOc2ccc(F)cc2)CC1OC (stereo not shown) [cisapride]",
    "k IAM": 57.99
  }
]

====

# CRP (Rf, control RP plate) per record follows
# method_summary: RP TLC on non-impregnated control plates
# Assay type: physicochemical
# conditions_used: Table S4, non-impregnated RP plate; acetonitrile/acetate buffer pH 7.4/methanol 60:20:20

[
  {
    "molecule": "CN1CCN2c3ccccc3Cc3ccccc3C2C1 (centres unmarked) [mianserin]",
    "CRP (Rf, control RP plate)": 0.55
  },
  {
    "molecule": "C[C@H]1COc2c(N3CCN(C)CC3)c(F)cc3c(=O)c(C(=O)O)cn1c23 [levofloxacin]",
    "CRP (Rf, control RP plate)": 0.27
  },
  {
    "molecule": "CN1C(=O)CC(=O)N(c2ccccc2)c2cc(Cl)ccc21 [clobazam]",
    "CRP (Rf, control RP plate)": 0.79
  },
  {
    "molecule": "CCC[C@H](N[C@@H](C)C(=O)N1[C@H](C(=O)O)C[C@@H]2CCCC[C@@H]21)C(=O)OCC [perindopril]",
    "CRP (Rf, control RP plate)": 0.57
  },
  {
    "molecule": "CC[C@H]1OC(=O)[C@H](C)[C@@H](O[C@H]2C[C@@](C)(OC)[C@@H](O)[C@H](C)O2)[C@H](C)[C@@H](O[C@@H]2O[C@H](C)C[C@H](N(C)C)[C@H]2O)[C@](C)(O)C[C@@H](C)CN(C)[C@H](C)[C@@H](O)[C@]1(C)O [azithromycin]",
    "CRP (Rf, control RP plate)": 0.24
  },
  {
    "molecule": "C[C@](N)(Cc1ccc(O)c(O)c1)C(=O)O [methyldopa]",
    "CRP (Rf, control RP plate)": 0.85
  },
  {
    "molecule": "C[C@]12CC[C@@H]3c4ccc(OC(=O)c5ccccc5)cc4CC[C@H]3[C@@H]1CC[C@@H]2O [estradiol benzoate]",
    "CRP (Rf, control RP plate)": 0.63
  },
  {
    "molecule": "CN/C(=N/CCSCc1nc[nH]c1C)NC#N [cimetidine]",
    "CRP (Rf, control RP plate)": 0.88
  }
]
